# assay-protocol: Lipophilicity (Log Papp) was measured at pH 7.4; Activity expressed as the log of the fraction in the octanol layer
# Type: physicochemical
# condition-label: octanol/aqueous phase
assay-readout: log fraction in octanol layer

Consider the reported log fraction in octanol layer for these compounds:
For the compound COc1cccc(C2=N[C@@H](C(=O)O)CS2)c1O , give its reported log fraction in octanol layer.
-1.52

For the compound C[C@]1(C(=O)O)CSC(c2ccc(O)cc2O)=N1 , give its reported log fraction in octanol layer.
-1.05

For the compound COc1cccc(C2=N[C@@](C)(C(=O)O)CS2)c1O , give its reported log fraction in octanol layer.
-1.12

For the compound O=C(O)[C@H]1CSC(c2cccc(O)c2O)=N1 , give its reported log fraction in octanol layer.
-1.67

For the compound COc1ccc(C2=N[C@@H](C(=O)O)CS2)c(O)c1 , give its reported log fraction in octanol layer.
-0.89

P. C[C@]1(C(=O)O)CSC(c2cccc(O)c2O)=N1
Q. COc1ccc(C2=N[C@@](C)(C(=O)O)CS2)c(O)c1
Looking at recorded values for log fraction in octanol layer, does P or Q come in lower? Returns: label corresponding to the selected item.
P
(P: -1.17, Q: -0.7)

Sourced from ChEMBL document CHEMBL1142654
